target: LRRK2 G2019S (Homo sapiens (Human), UniProt Q5S007, G2019S); assay: LRRK2 G2019S Kinase Assay (Adapta); conditions: 100 μM ATP, LRRKtide substrate; read-out: LRRK2_G2019S IC50
Sequence (Q5S007 whole entry G2019S): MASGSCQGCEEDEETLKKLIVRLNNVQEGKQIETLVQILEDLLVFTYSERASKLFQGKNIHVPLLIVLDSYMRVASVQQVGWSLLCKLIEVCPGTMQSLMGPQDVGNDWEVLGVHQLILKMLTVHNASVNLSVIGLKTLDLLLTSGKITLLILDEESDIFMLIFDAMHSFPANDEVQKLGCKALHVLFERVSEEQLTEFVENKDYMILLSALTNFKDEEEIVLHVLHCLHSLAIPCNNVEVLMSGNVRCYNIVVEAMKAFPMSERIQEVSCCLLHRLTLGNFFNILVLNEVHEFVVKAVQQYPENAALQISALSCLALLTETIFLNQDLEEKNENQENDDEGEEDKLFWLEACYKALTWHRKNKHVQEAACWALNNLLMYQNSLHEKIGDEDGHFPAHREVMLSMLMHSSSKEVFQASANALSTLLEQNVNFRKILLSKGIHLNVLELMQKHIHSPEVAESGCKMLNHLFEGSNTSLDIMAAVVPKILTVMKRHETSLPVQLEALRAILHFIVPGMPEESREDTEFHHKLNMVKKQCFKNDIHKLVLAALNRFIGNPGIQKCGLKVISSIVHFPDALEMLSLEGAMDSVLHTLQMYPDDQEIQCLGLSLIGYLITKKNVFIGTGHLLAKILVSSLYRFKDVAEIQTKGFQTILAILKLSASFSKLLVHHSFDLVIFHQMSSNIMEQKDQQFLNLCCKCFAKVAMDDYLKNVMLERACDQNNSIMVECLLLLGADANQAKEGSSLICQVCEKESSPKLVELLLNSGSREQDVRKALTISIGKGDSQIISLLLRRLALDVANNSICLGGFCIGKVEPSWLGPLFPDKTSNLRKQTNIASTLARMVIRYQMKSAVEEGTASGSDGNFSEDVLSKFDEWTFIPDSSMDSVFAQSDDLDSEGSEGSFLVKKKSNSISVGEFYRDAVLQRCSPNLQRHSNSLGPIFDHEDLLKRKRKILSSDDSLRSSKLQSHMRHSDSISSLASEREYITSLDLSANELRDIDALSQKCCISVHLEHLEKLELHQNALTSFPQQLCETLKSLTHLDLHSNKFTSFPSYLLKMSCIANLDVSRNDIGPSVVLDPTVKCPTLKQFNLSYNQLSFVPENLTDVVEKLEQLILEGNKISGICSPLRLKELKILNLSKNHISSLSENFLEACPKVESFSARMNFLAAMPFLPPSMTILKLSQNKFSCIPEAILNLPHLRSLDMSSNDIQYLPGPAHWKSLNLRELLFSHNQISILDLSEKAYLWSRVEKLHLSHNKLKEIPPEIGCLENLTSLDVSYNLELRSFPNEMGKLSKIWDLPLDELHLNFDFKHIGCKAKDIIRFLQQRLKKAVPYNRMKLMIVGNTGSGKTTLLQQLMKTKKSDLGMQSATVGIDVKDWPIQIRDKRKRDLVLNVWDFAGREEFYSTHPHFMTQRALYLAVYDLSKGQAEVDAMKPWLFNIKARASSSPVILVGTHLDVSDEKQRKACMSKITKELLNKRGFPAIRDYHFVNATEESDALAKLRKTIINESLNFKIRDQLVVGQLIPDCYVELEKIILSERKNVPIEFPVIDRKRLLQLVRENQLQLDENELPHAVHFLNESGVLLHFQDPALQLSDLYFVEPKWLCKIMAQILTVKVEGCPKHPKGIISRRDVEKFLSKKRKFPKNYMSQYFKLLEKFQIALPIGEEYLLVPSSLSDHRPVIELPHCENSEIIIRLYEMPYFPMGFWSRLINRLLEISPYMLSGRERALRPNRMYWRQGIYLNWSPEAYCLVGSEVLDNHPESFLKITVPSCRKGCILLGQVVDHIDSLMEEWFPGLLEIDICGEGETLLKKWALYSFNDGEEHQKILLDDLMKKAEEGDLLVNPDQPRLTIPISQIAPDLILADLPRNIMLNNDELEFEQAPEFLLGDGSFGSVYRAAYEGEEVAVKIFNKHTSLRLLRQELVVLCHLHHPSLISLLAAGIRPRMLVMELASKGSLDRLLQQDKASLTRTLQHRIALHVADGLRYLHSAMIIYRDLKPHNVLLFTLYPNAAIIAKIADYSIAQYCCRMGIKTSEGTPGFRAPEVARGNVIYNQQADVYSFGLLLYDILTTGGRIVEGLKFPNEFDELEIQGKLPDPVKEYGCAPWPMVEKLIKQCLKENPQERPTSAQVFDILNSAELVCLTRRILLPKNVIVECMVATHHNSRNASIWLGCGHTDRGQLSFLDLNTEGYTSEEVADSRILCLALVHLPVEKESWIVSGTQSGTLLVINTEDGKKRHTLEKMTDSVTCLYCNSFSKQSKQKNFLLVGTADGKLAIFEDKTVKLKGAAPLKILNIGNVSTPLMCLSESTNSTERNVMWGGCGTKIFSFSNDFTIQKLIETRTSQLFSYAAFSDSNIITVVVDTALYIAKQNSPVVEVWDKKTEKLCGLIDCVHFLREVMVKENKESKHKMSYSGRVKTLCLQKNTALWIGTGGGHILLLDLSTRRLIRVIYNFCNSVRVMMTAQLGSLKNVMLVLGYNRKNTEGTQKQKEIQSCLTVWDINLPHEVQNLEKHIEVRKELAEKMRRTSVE
readout kind: IC50

Lookup: Notebook entry, LRRK2 G2019S (Homo sapiens (Human), UniProt Q5S007, G2019S) assay: IC50 of Cc1c(F)cccc1-c1ccc2nc(NC(=O)[C@@H]3C[C@@H]3F)c(C)n2c1 = ?
Found: 101 to 1000 nM

###

Items are presented alongside their recorded pIC50.
target: c-Abl (His-tagged recombinant human ABL1) (Homo sapiens (Human)); assay: c-abl Kinase Assay (ADP-Glo); conditions: ATP (25 μM), Abltide substrate
pIC50: −log10 of the molar value.

Cc1ccc(O)cc1-c1ccc2nc(NC(=O)[C@@H]3C[C@@H]3F)cn2c1	> 8.00
O=C(Nc1cn2cc(-c3cnccc3Cl)ccc2n1)[C@@H]1C[C@@H]1F	7.00 to 8.00
Cc1c(F)cccc1-c1ccc2nc(NC(=O)[C@H]3C[C@@H]3F)cn2c1 (stereo in doubt)	> 8.00

Lookup: pIC50 for CC(C)NCc1c(F)cccc1-c1ccc2nc(NC(=O)[C@@H]3C[C@@H]3F)cn2c1 ?
Found: < 6.00

Lookup: Next molecule: O=C(Nc1cn2cc(-c3cccc(F)c3C3CC3)ccc2n1)[C@@H]1C[C@@H]1F
Found: > 8.00

Lookup: Query Cc1c(F)cccc1-c1ccc2nc(NC(=O)[C@@H]3C[C@@H]3F)c(C)n2c1 next
Found: 7.00 to 8.00

###

Observed IC50 values for LRRK2 (WT) (Homo sapiens (Human), UniProt Q5S007) are listed in what follows.
Where a name gives a salt, the structure may show the parent alone.

Cc1ccncc1-c1ccc2nc(NC(=O)[C@@H]3C[C@@H]3F)c(C)n2c1	> 1000 nM

Lookup: // IC50 lookup, key: CC(=O)c1c(F)cccc1-c1ccc2nc(NC(=O)[C@@H]3C[C@@H]3F)cn2c1
Found: > 1000 nM

Lookup: // same read-out, input: Cc1c(F)cccc1-c1ccc2nc(NC(=O)[C@@H]3C[C@@H]3F)cn2c1 [Example 1, Hydrochloride]
Found: 10 to 100 nM

Lookup: Now the compound Cc1ccc(-c2cc[nH]n2)cc1-c1ccc2nc(NC(=O)[C@@H]3C[C@@H]3F)cn2c1
Found: 101 to 1000 nM

Lookup: Now the same for Cc1c(F)cccc1-c1ccc2nc(NC(=O)C3CCC3)cn2c1
Found: 10 to 100 nM

Lookup: Please do the same for Cc1c(F)cccc1-c1ccc2nc(NC(=O)C3CC3)cn2c1 as well.
Found: 10 to 100 nM

Lookup: Now the same for Cc1cccc(F)c1-c1ccc2nc(NC(=O)[C@@H]3C[C@@H]3F)cn2c1
Found: 101 to 1000 nM

Lookup: Thanks! And Cc1c(O)cccc1-c1ccc2nc(NC(=O)[C@@H]3C[C@@H]3F)cn2c1 ?
Found: < 10 nM

Lookup: Next up: CNc1ccc(C)c(-c2ccc3nc(NC(=O)[C@@H]4C[C@@H]4F)cn3c2)c1
Found: 101 to 1000 nM

###

Reported IC50 by item:
target: c-Abl (His-tagged recombinant human ABL1) (Homo sapiens (Human), UniProt P00519); assay: c-abl Kinase Assay (ADP-Glo); format: biochemical; settings: ATP (25 μM), Abltide substrate
Sequence (P00519 whole entry): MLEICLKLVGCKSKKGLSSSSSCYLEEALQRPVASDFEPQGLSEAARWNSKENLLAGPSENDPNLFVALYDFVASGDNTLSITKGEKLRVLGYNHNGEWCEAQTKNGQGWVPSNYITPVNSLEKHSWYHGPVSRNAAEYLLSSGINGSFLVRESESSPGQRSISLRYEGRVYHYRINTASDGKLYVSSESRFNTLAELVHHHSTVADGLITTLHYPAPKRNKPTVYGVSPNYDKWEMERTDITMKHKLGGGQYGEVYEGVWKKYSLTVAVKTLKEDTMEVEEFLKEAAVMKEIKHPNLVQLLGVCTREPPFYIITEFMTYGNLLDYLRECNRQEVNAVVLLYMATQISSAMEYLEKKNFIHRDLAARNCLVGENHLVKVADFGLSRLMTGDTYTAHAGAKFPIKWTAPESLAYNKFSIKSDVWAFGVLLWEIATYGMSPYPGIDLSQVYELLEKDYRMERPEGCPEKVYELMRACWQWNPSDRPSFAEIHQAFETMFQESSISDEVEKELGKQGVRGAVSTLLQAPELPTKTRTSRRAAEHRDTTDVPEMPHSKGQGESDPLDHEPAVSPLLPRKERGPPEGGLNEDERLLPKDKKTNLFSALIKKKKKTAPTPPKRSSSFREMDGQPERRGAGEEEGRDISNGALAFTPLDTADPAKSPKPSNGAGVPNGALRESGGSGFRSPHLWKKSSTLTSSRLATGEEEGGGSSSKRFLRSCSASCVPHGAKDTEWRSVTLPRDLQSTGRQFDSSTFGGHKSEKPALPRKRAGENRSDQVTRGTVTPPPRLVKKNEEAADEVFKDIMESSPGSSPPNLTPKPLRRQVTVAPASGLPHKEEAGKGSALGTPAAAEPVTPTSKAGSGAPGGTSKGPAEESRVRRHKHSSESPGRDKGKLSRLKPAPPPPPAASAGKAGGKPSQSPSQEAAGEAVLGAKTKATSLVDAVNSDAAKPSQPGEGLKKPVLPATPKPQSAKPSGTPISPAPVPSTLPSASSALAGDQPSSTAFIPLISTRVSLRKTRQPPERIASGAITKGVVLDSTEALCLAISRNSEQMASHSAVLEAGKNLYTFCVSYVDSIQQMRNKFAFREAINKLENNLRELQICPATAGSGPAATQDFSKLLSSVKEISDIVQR

Cc1cccc(F)c1-c1ccc2nc(NC(=O)[C@@H]3C[C@@H]3F)c(Cl)n2c1 [Example 4]	10 to 100 nM
Cc1cc2[nH]ccc2cc1-c1ccc2nc(NC(=O)[C@@H]3C[C@@H]3F)cn2c1 [Example 92]	< 10 nM
COc1c(F)cccc1-c1ccc2nc(NC(=O)[C@@H]3C[C@@H]3F)cn2c1 [Example 59]	< 10 nM

Lookup: Which IC50 value belongs to CC(=O)NCc1c(F)cccc1-c1ccc2nc(NC(=O)[C@@H]3C[C@@H]3F)cn2c1 [Example 75] ?
Found: 101 to 1000 nM

Lookup: // query: N#Cc1ccncc1-c1ccc2nc(NC(=O)[C@@H]3C[C@@H]3F)cn2c1 [Example 36]
Found: 101 to 1000 nM

Lookup: Try Cc1c(F)ccc(-c2ccc3nc(NC(=O)[C@@H]4C[C@@H]4F)cn3c2)c1C [Example 37] next.
Found: < 10 nM

Lookup: Thanks! And O=C(Nc1cn2cc(-c3cccc(F)c3CO)ccc2n1)[C@@H]1C[C@@H]1F [Example 57] ?
Found: < 10 nM

Lookup: Please give the result for Cc1ccc(F)cc1-c1ccc2nc(NC(=O)[C@@H]3C[C@@H]3F)cn2c1 [Example 11] too.
Found: < 10 nM

###

target: LRRK2 G2019S (Homo sapiens (Human), UniProt Q5S007, G2019S); assay: LRRK2 G2019S Kinase Assay (Adapta); conditions: 100 μM ATP, LRRKtide substrate; read-out: LRRK2_G2019S IC50
pIC50: −log10 of the molar value.
readout kind: pIC50

O=C1Cc2ccc(-c3ccc4nc(NC(=O)[C@@H]5C[C@@H]5F)cn4c3)cc2N1	< 6.00
Cc1ccncc1-c1ccc2nc(NC(=O)[C@@H]3C[C@@H]3F)c(C)n2c1	< 6.00
CNc1ccc(C)c(-c2ccc3nc(NC(=O)[C@@H]4C[C@@H]4F)cn3c2)c1	7.00 to 8.00

Now examine the next entry.
Lookup: Look up pIC50: CNCc1c(F)cccc1-c1ccc2nc(NC(=O)[C@@H]3C[C@@H]3F)cn2c1
Found: < 6.00

###

target: LRRK2 G2019S (Homo sapiens (Human), UniProt Q5S007, G2019S); assay: LRRK2 G2019S Kinase Assay (Adapta); conditions: 100 μM ATP, LRRKtide substrate; read-out: LRRK2_G2019S IC50
readout kind: IC50

Answered cases to consult:
Cc1cccc(Cl)c1-c1ccc2nc(NC(=O)[C@@H]3C[C@@H]3F)cn2c1	10 to 100 nM
O=C(Nc1cn2cc(-c3cnccc3Cl)ccc2n1)[C@@H]1C[C@@H]1F	101 to 1000 nM

Lookup: Kindly state the measured IC50 obtained for CSc1c(F)cccc1-c1ccc2nc(NC(=O)[C@@H]3C[C@@H]3F)cn2c1 with LRRK2 G2019S (Homo sapiens (Human), UniProt Q5S007, G2019S).
Found: 10 to 100 nM

Lookup: Continue with Cc1c(F)cccc1-c1ccc2nc(NC(=O)[C@H]3C[C@@H]3F)cn2c1 (stereo in doubt)
Found: 10 to 100 nM

Lookup: And the next one, Cc1c(F)cccc1-c1ccc2nc(NC(=O)C3CC3(F)F)cn2c1 (centres unmarked) ?
Found: 10 to 100 nM

###

target: LRRK2 G2019S (Homo sapiens (Human), UniProt Q5S007, G2019S); experiment: LRRK2 G2019S Kinase Assay (Adapta); conditions: 100 μM ATP, LRRKtide substrate; read-out: LRRK2_G2019S IC50
IC50: recorded values

Cc1c(F)cccc1-c1ccc2nc(NC(=O)[C@@H]3C[C@H]3F)cn2c1 (stereo in doubt)	10 to 100 nM
Cc1cc(N(C)C)ncc1-c1ccc2nc(NC(=O)[C@@H]3C[C@@H]3F)cn2c1	> 1000 nM
Cc1c(F)cccc1-c1ccc2nc(NC(=O)C3CC3)cn2c1	10 to 100 nM
CC(C)NCc1c(F)cccc1-c1ccc2nc(NC(=O)[C@@H]3C[C@@H]3F)cn2c1	> 1000 nM
Cc1ccc2c(c1-c1ccc3nc(NC(=O)[C@@H]4C[C@@H]4F)cn3c1)CC(=O)N2	> 1000 nM

Lookup: Entry under review: Cc1ccc(-c2ccc3nc(NC(=O)[C@@H]4C[C@@H]4F)cn3c2)c(C)c1 . Reported IC50?
Found: 101 to 1000 nM

Lookup: Similarly, Cc1cc(F)ncc1-c1ccc2nc(NC(=O)[C@@H]3C[C@@H]3F)cn2c1 ?
Found: 10 to 100 nM

Lookup: // same read-out, input: O=C(Nc1cn2cc(-c3cccc(F)c3Cl)ccc2n1)[C@@H]1C[C@@H]1F
Found: 10 to 100 nM

###

molecular target: c-Abl (His-tagged recombinant human ABL1) (Homo sapiens (Human), UniProt P00519); assay: c-abl Kinase Assay (ADP-Glo); conditions: ATP (25 μM), Abltide substrate
pIC50: −log10 of the molar value.
readout kind: pIC50

Record excerpt, results attached:
CNc1c(F)cccc1-c1ccc2nc(NC(=O)[C@@H]3C[C@@H]3F)cn2c1 [Example 98]	> 8.00
Cc1ccsc1-c1ccc2nc(NC(=O)[C@@H]3C[C@@H]3F)cn2c1 [Example 41]	> 8.00
Nc1ccc(-c2ccc3nc(NC(=O)[C@@H]4C[C@@H]4F)cn3c2)cn1 [Example 55]	7.00 to 8.00
Cc1cc(F)c(O)cc1-c1ccc2nc(NC(=O)[C@@H]3C[C@@H]3F)cn2c1 [Example 43]	> 8.00
CC(C)c1c(F)cccc1-c1ccc2nc(NC(=O)[C@@H]3C[C@@H]3F)cn2c1 [Example 105]	6.00 to 7.00

Lookup: Dear colleague, I am looking for the recorded pIC50 of the following compound: Cc1ccc(-n2cccn2)cc1-c1ccc2nc(NC(=O)[C@@H]3C[C@@H]3F)cn2c1 [Example 56]
Found: > 8.00

Lookup: // query: O=C(Nc1cn2cc(-c3cccc(F)c3Cl)ccc2n1)[C@@H]1C[C@@H]1F [Example 61]
Found: > 8.00

Lookup: What do you have for CN(C)Cc1c(F)cccc1-c1ccc2nc(NC(=O)[C@@H]3C[C@@H]3F)cn2c1 [Example 84] ?
Found: < 6.00

Lookup: Another: Cc1c(F)cncc1-c1ccc2nc(NC(=O)[C@@H]3C[C@@H]3F)c(Cl)n2c1 [Example 16]
Found: 6.00 to 7.00

Lookup: Next record, please: CC(=O)Nc1ccc(C)c(-c2ccc3nc(NC(=O)[C@@H]4C[C@@H]4F)cn3c2)c1 [Example 25]
Found: 7.00 to 8.00

Lookup: Entry to check: CN(C)c1c(F)cccc1-c1ccc2nc(NC(=O)[C@@H]3C[C@@H]3F)cn2c1 [Example 93]
Found: 7.00 to 8.00
